Examples of compounds with documented IC50 follow.
# target.system: UniProt P27338
# Sequence (P27338 whole entry): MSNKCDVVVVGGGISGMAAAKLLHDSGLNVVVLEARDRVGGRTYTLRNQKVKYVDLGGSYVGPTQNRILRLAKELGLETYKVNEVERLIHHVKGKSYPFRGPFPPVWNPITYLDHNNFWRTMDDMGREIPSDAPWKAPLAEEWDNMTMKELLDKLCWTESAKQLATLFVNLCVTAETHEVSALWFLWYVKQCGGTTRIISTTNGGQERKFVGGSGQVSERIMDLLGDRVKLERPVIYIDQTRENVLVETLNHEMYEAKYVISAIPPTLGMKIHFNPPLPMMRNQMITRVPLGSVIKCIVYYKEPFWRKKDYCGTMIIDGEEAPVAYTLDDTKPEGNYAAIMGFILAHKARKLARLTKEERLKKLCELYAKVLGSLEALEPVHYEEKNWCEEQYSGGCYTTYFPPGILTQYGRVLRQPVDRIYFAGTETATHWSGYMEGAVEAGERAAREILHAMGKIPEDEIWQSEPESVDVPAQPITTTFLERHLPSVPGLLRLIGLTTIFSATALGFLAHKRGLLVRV
Counter-ions that a name gives are not always drawn.

Solved cases (5 shown):
INSERT INTO assay_data (compound, metric_name, value_observed) VALUES
  ('O=C(NCc1ccccn1)c1ccc([C@@H]2C[C@H]2NCC2CC2)cc1 (relative stereo) [Example 16, bis(trifluoroacetate)]', 'IC50', '> 10 µM'),
  ('O=C(Nc1ccc(Cc2ccccc2)cc1)c1cccc([C@@H]2C[C@H]2NCC2CC2)c1 (relative stereo) [Example 129, trifluoroacetate]', 'IC50', '> 10 µM'),
  ('O=C(NC1CCC(F)(F)CC1)c1cccc([C@@H]2C[C@H]2NC2CCN(C3CC3)CC2)c1 (relative stereo) [Example 208, dihydrochloride]', 'IC50', '> 10 µM'),
  ('N[C@@H]1C[C@H]1c1ccc(C(=O)Nc2ccccc2)cc1 (relative stereo) [Example 1, hydrochloride]', 'IC50', '3.2 µM'),
  ('Cn1cc(NC(=O)c2ccc([C@@H]3C[C@H]3NCC3CC3)cc2)cn1 (relative stereo) [Example 53, dihydrochloride]', 'IC50', '> 10 µM');

## Input Returns the measured IC50 for the input compound. Input: O=C(Nc1ccc(N2CCCC2=O)cc1)c1cccc([C@@H]2C[C@H]2NCC2CC2)c1 (relative stereo) [Example 82, hydrochloride]
## Output > 10 µM
